biological target: Homo sapiens tyrosyl-tRNA synthetase (HsTyrRS) (Homo sapiens, UniProt P54577); construct: gene YARS1; recombinant HsTyrRS, C-terminal 10 × His tag, ~64 kDa, homodimer; assay: ATP hydrolysis (consumption) assay, luciferin/luciferase luminescence, purified enzyme; type: biochemical
Sequence (P54577 whole entry): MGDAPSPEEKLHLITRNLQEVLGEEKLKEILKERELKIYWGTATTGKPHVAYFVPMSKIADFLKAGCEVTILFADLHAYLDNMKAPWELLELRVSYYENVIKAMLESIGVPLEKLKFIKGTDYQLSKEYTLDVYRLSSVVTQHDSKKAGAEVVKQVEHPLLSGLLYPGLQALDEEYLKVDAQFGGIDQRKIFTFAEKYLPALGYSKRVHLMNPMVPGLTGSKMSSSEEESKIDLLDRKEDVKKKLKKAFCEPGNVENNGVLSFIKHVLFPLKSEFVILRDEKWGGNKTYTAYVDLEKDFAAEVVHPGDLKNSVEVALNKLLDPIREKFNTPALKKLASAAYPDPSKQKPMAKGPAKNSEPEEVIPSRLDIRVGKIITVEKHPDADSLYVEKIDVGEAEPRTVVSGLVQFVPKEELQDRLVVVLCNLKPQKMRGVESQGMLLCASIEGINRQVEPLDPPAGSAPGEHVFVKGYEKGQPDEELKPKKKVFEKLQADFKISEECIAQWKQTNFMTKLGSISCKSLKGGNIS
property_label: IC50 (µM)
One number for each entry, in µM.

Write IC50 of O=C(/C=C/c1ccc(O)c(O)c1)c1ccc(O)c(O)c1O ; system used: Homo sapiens tyrosyl-tRNA synthetase (HsTyrRS) (Homo sapiens, UniProt P54577)
38.2

###

molecular target: Plasmodium falciparum tyrosyl-tRNA synthetase (PfTyrRS) (Plasmodium falciparum, UniProt Q8IAR7); construct: recombinant PfTyrRS (PF3D7-0807900), C-terminal 10 × His tag, ~47 kDa, homodimer; assay: bio-layer interferometry (Ni-NTA biosensors, immobilized PfTyrRS); supported by ATP hydrolysis inhibition (IC50 […]), TSA and limited proteolysis
Sequence (Q8IAR7 entry or part of it): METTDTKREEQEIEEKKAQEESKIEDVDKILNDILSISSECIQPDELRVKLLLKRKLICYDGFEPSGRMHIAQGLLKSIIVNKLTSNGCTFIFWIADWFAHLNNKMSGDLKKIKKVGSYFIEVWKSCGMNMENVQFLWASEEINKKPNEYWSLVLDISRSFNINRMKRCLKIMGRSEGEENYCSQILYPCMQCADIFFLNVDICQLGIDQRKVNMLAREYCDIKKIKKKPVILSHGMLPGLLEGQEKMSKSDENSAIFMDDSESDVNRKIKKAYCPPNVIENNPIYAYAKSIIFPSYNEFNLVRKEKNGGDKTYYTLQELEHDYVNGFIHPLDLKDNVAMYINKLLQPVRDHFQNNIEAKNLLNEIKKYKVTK
property_label: Kd (nM)
One number for each entry, in nM.

Please report the measured Kd for O=C(/C=C/c1ccc(O)c(O)c1)c1ccc(O)c(O)c1O
290
